Experimental Protocol: BSK_SAg_SRB: Viability Assessment in the BioMAP Diversity Plus: SAg Assay (AID 2283096);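 note: cells read one day after compound addition; hits may be either gain or loss of signal compared with DMSO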
Recorded Conditions: primary human HUVEC with PBMC
The source made the active and inactive calls. Rule for the calls: active = hit-call score of the fitted dose curve at least 0.9, where 1 is the maximum; inactive = score below 0.9.
Reported Endpoint: outcome

Example molecules with recorded outcome:
{"columns": ["Molecule", "Value Observed"],
 "data": [
  ["O=C(Cl)c1c(Cl)c(Cl)c(C(=O)Cl)c(Cl)c1Cl", "inactive"],
  ["Clc1cc(Cl)c(Cl)c(Cl)c1Cl", "inactive"],
  ["CCCCCC1=CCCC1=O", "inactive"],
  ["C=C(C)C(=O)OCCCCCCCCCCCC", "inactive"],
  ["C1CNCCN1", "inactive"],
  ["CCCC(C)C(=O)OCC (centres undefined)", "inactive"]
]}

Read off the recorded outcome for `COC(OC)(C(=O)c1ccccc1)c1ccccc1` inactive

Read off the recorded outcome for `CCCCC1C(=O)N(c2ccccc2)N(c2ccccc2)C1=O` inactive

Read off the recorded outcome for `CCCCCCOC(=O)CCCCC(=O)OCCCCCC` inactive

Read off the recorded outcome for `CCN1CN(CC)CN(CC)C1` inactive

Read off the recorded outcome for `O=C(O)C(F)(F)C(F)(F)C(F)(F)C(F)(F)C(=O)O` inactive

Read off the recorded outcome for `CC(c1cc(C(C)(C)C)cc(C(C)(C)C)c1O)c1cc(C(C)(C)C)cc(C(C)(C)C)c1O` inactive

Read off the recorded outcome for `CCNc1nc(NC(C)(C)C)nc(OC)n1` inactive

Read off the recorded outcome for `CCCCCCCO` inactive

====

Assayed System: Nuclear receptor subfamily 1 group I member 3 (Homo sapiens) (UniProt Q14994)
Sequence (Q14994 whole entry, looked up): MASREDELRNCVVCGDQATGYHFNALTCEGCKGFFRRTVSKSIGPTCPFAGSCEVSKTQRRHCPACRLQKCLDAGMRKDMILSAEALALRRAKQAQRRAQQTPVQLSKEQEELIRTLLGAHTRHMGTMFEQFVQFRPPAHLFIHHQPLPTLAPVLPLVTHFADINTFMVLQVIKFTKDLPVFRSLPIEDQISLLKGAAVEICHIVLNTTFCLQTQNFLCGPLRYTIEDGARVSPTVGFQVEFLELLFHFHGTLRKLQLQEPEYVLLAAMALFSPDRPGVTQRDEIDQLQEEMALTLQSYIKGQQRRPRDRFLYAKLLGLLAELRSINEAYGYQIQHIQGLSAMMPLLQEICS
Experimental Protocol: ATG_CAR_TRANS: Attagene TRANS-FACTORIAL HepG2 Assay for human Constitutive Androstane Receptor (CAR) (AID 2282969);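 note: activators raise reporter mRNA above DMSO so AC50 marks induction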
Recorded Conditions: HepG2 Attagene TRANS-FACTORIAL CAR reporter
Results filed as inconclusive are left out. Activity calls are given as the source filed them. The calls were made as follows: active = hit-call score of the fitted dose curve at least 0.9, where 1 is the maximum; inconclusive = response in the unintended direction; inactive = score below 0.9.
Please state which outcome applies, choosing from t (active), f (inactive)

Worked cases, answers included:
{"columns": ["Molecule", "Assayed System", "Answer Label"],
 "data": [
  ["CCCSSCCC", "Nuclear receptor subfamily 1 group I member 3 (Homo sapiens) (UniProt Q14994)", "f"],
  ["CC(=O)OCCc1ccccc1", "Nuclear receptor subfamily 1 group I member 3 (Homo sapiens) (UniProt Q14994)", "f"]
]}

Turning now to a further molecule:
Identify the outcome logged in this assay for the molecule shown: `CC1=CC=C(C(C)C)CC1` f

====

Experimental Protocol: ATG_NF_kB_CIS: Attagene CIS-FACTORIAL HepG2 Assay for human Nuclear Factor Kappa B (NF-kB) (AID 2282991)
Recorded Conditions: HepG2 Attagene cis-factorial NF-kB reporter mRNA; actives raise or lower the signal
Active and inactive are the calls of the source. The calls were made as follows: active = hit-call score of the fitted dose curve at least 0.9, where 1 is the maximum; inactive = score below 0.9.
Please state which outcome applies, choosing from class 1 = active, class 0 = inactive

Worked cases, answers included:
{"columns": ["Molecule", "Answer Label"],
 "data": [
  ["CCCCC(CC)COC(=O)/C=C/c1ccc(OC)cc1 (stereo not given)", "class 0"],
  ["Cc1c(C(=O)c2c[nH]n(C)c2=O)ccc(S(C)(=O)=O)c1C1=NOCC1", "class 0"],
  ["CCCCCCCO", "class 0"],
  ["O=C(O)/C=C/c1ccccc1", "class 0"],
  ["O=C1CCCCC1C1CCCCC1 (stereo not given)", "class 0"]
]}

Identify the outcome logged in this assay for the molecule shown: `Nc1ccc(O)c([N+](=O)[O-])c1` class 1

Identify the outcome logged in this assay for the molecule shown: `c1ccc(Nc2cccc3ccccc23)cc1` class 0
